# cell viability per record follows
# Test system: K562
# assay.method.text: cell viability relative to vehicle control; higher = less cytotoxic;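 further: after 48 h exposure read by CellTiter-Glo luminescence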
# condition.parameters: 10 µM; SRSF2 genotype: SRSF2 wt/wt
parameter: cell viability (%)

compound: CC(=O)OC1CCC2C3CCc4cc(O)ccc4C3CCC12C (stereo not drawn)
subject.of.test: K562
parameter: cell viability
observed.measurement: 90.6
--
compound: Cc1ccc(C(=O)Cn2c3c(sc2=N)CCCC3)cc1
subject.of.test: K562
parameter: cell viability
observed.measurement: 91.3
--
compound: Cc1c[nH]c(C=C2C(=O)Nc3ccccc32)c1CCC(=O)O
subject.of.test: K562
parameter: cell viability
observed.measurement: 91.2

* * *

Reported cell viability is given for each of the following molecules.
# System: MARIMO
# assay.method.text: cell viability relative to vehicle control; higher = less cytotoxic
# condition.parameters: 10 µM; SRSF2 genotype: SRSF2 wt/wt
Structures can show the parent of a compound that is named as a salt.
parameter: cell viability

molecule: Nc1nc(N)c2nc(-c3cccc(O)c3)c(-c3cccc(O)c3)nc2n1
subject.of.test: MARIMO
observed.measurement: 101%
--
molecule: Cc1nc(NC(=O)N2CCC[C@H]2C(N)=O)sc1-c1csc(C(C)(C)C)n1
subject.of.test: MARIMO
observed.measurement: 63.3%
--
molecule: CC(C)N(CC[C@H](c1ccccc1)c1cc(CO)ccc1O)C(C)C
subject.of.test: MARIMO
observed.measurement: 90.7%
--
molecule: C=C[C@]1(C)C[C@@H](OC(=O)CSCCN(CC)CC)[C@]2(C)[C@H](C)CC[C@]3(CCC(=O)[C@H]32)[C@@H](C)[C@@H]1O [Tiamulin fumarate]
subject.of.test: MARIMO
observed.measurement: 91.3%
--
molecule: C[C@]12C=CC(=O)C=C1CC[C@@H]1[C@@H]2[C@@H](O)C[C@@]2(C)[C@H]1CC[C@]2(O)C(=O)CO [Prednisolone]
subject.of.test: MARIMO
observed.measurement: 103%
--
molecule: O=C1Nc2ccc(I)cc2C1=Cc1cc(Br)c(O)c(Br)c1
subject.of.test: MARIMO
observed.measurement: 109%
--
molecule: Cc1cnc(Nc2ccc(N3CCN(C)CC3)cc2)nc1Nc1cccc(S(=O)(=O)NC(C)(C)C)c1
subject.of.test: MARIMO
observed.measurement: 16.1%
--
molecule: O=C(O)Cc1ccccc1Nc1c(Cl)cccc1Cl [Diclofenac Diethylamine]
subject.of.test: MARIMO
observed.measurement: 101%
--
molecule: CC/C=C(\C(=O)N[C@@H]1C(=O)N2C(C(=O)OCOC(=O)C(C)(C)C)=C(COC(N)=O)CS[C@H]12)c1csc(N)n1 [Cefcapene Pivoxil Hydrochloride]
subject.of.test: MARIMO
observed.measurement: 103%
--
molecule: CC1CNc2c(cccc2S(=O)(=O)N[C@@H](CCCNC(=N)N)C(=O)N2CC[C@@H](C)C[C@@H]2C(=O)O)C1 (stereo partly specified) [Argatroban]
subject.of.test: MARIMO
observed.measurement: 108%
--
molecule: CC(C)Cn1cnc2c(N)nc3ccccc3c21 [Imiquimod]
subject.of.test: MARIMO
observed.measurement: 92.4%
--
molecule: CNC(=O)c1ccc(N2C(=S)N(c3ccc(C#N)c(C(F)(F)F)c3)C(=O)C2(C)C)cc1F [MDV3100 (Enzalutamide)]
subject.of.test: MARIMO
observed.measurement: 89.1%
--
molecule: CCCCCCCCCC=O [Decyl aldehyde]
subject.of.test: MARIMO
observed.measurement: 101%
--
molecule: NC(=O)c1cccnc1 [Nicotinamide (Vitamin B3)]
subject.of.test: MARIMO
observed.measurement: 103%
--
molecule: O=C(c1ccc(F)cc1)C1CCN(CCn2c(=O)[nH]c3ccccc3c2=O)CC1 [Ketanserin (Vulketan Gel)]
subject.of.test: MARIMO
observed.measurement: 106%
--
molecule: NC(=S)N/N=C/c1ncccc1N [Triapine]
subject.of.test: MARIMO
observed.measurement: 15.3%
--
molecule: C=CCNC1=C2C[C@@H](C)C[C@H](OC)[C@H](O)[C@@H](C)/C=C(\C)[C@H](OC(N)=O)[C@@H](OC)/C=C\C=C(/C)C(=O)NC(=CC1=O)C2=O [17-AAG (Tanespimycin)]
subject.of.test: MARIMO
observed.measurement: 24.3%
--
molecule: O=C(Cc1ccc(-c2ccc(OCCN3CCOCC3)cc2)cn1)NCc1ccccc1
subject.of.test: MARIMO
observed.measurement: 9.4%
--
molecule: COc1ccc(/C=C/C(=O)c2c(O)cc(OC)cc2OC)cc1 [Flavokawain A]
subject.of.test: MARIMO
observed.measurement: 82.6%
--
molecule: CNC(=O)c1ccc2cc([C@@]3(O)CCn4cncc43)ccc2c1 [TAK-700 (Orteronel)]
subject.of.test: MARIMO
observed.measurement: 105%
--
molecule: Cc1cc(NS(=O)(=O)c2ccc(N)cc2)nc(C)n1 [sulfaisodimidine]
subject.of.test: MARIMO
observed.measurement: 101%
--
molecule: NC(=O)c1cccc2cn(-c3ccc([C@@H]4CCCNC4)cc3)nc12 [MK-4827(Niraparib) tosylate]
subject.of.test: MARIMO
observed.measurement: 64.4%
--
molecule: OCCc1c[nH]c2ccccc12 [Tryptophol]
subject.of.test: MARIMO
observed.measurement: 110%
--
molecule: C[C@H]1[C@H](NC(=O)/C(=N\OC(C)(C)C(=O)O)c2csc(N)n2)C(=O)N1S(=O)(=O)O [Aztreonam (Azactam, Cayston)]
subject.of.test: MARIMO
observed.measurement: 112%
--
molecule: C[C@H](NC(=O)CCC(F)(F)F)C(=O)N[C@@H]1C(=O)N(CCO)c2ncccc2-c2ccccc21
subject.of.test: MARIMO
observed.measurement: 108%
--
molecule: CC1=C[C@]2(O)O[C@@]3(CC2=C(C)C)[C@@H](C)CC[C@@H]13 [Curcumenol]
subject.of.test: MARIMO
observed.measurement: 109%

* * *

# Tested on: MOLM14
# assay.method.text: cell viability relative to vehicle control; higher = less cytotoxic
# condition.parameters: 10 µM; SRSF2 genotype: SRSF2 wt/wt
Measured cell viability of individual entries
parameter: cell viability (%)

molecule: Oc1cc(CNC(=S)/C=C/c2cc(O)c(O)c(Br)c2)cc(O)c1O
parameter: cell viability
observed.measurement: 5.87

molecule: CN1CC(O)c2cc(N=NC(N)=O)c(O)cc21 (stereo not given) [Carbazochrome]
parameter: cell viability
observed.measurement: 101

molecule: CCCC[S+]([O-])c1sc2nc(-c3cccs3)cc(-c3ccccc3)c2c1N (stereo not given)
parameter: cell viability
observed.measurement: 99.4

molecule: O=C(O)c1ccc2c3c1cccc3c(=O)n1c3ccccc3nc21
parameter: cell viability
observed.measurement: 99.9

molecule: O=C(O)CCCCCCCC(O)C(O)CCCCCCO (stereo not given) [Aleuritic Acid]
parameter: cell viability
observed.measurement: 107

* * *

Items are presented alongside their recorded cell viability.
# Tested on: MOLM14
# assay.method.text: cell viability relative to vehicle control; higher = less cytotoxic
# condition.parameters: 10 µM; SRSF2 genotype: SRSF2 wt/wt
Structures can show the parent of a compound that is named as a salt.
parameter: cell viability (%)

compound: CCC(C)CC(C)CCCCCCCCC(=O)NC1CC(O)C(O)NC(=O)C2C(O)CCN2C(=O)C(C(O)CC(N)=O)NC(=O)C(C(O)C(O)c2ccc(O)cc2)NC(=O)C2CC(O)CN2C(=O)C(C(C)O)NC1=O (stereo unspecified)
observed.measurement: 98.7

compound: CC1(C)S[C@@H]2[C@H](NC(=O)[C@H](C(=O)O)c3ccsc3)C(=O)N2[C@H]1C(=O)O [Ticarcillin sodium]
observed.measurement: 101

compound: COc1cc2nc(N(C)CCCNC(=O)C3CCCO3)nc(N)c2cc1OC (stereo unspecified) [Alfuzosin hydrochloride (Uroxatral)]
observed.measurement: 97.5

compound: CC1=C(/C=C/C(C)=C/C=C/C(C)=C/C(=O)O)C(C)(C)CCC1 [All-trans Retinoic Acid (Tretinoin)]
observed.measurement: 75.3

compound: CCOC(C)OCCc1ccccc1 (stereo unspecified)
observed.measurement: 107

compound: CN(Cc1cnc2nc(N)nc(N)c2n1)c1ccc(C(=O)N[C@@H](CCC(=O)O)C(=O)O)cc1 [Abitrexate (Methotrexate)]
observed.measurement: 74

* * *

# System: MOLM14
# assay.method.text: cell viability relative to vehicle control; higher = less cytotoxic
# condition.parameters: 10 µM; SRSF2 genotype: SRSF2 wt/wt
Where a name gives a salt, the structure may show the parent alone.

molecule: CC(O)COCC1OC2OC3C(COCC(C)O)OC(OC4C(COCC(C)O)OC(OC5C(COCC(C)O)OC(OC6C(COCC(C)O)OC(OC7C(COCC(C)O)OC(OC8C(COCC(C)O)OC(OC1C(O)C2O)C(O)C8O)C(O)C7O)C(O)C6O)C(O)C5O)C(O)C4O)C(O)C3O (stereo not given)
cell viability / %: 108

molecule: C[C@@H]1CC[C@]2(C(=O)O[C@@H]3O[C@H](CO)[C@@H](O)[C@H](O)[C@H]3O)CC[C@]3(C)C(=CC[C@@H]4[C@@]5(C)CC[C@H](O)[C@@](C)(CO)[C@@H]5CC[C@]43C)[C@@H]2[C@]1(C)O [Pedunculoside]
cell viability / %: 108

molecule: Cc1ccn[nH]1
cell viability / %: 105

molecule: CC/C(=C(\c1ccccc1)c1ccc(OCCN(C)C)cc1)c1ccccc1 [Tamoxifen Citrate (Nolvadex)]
cell viability / %: 81.8

molecule: C=CC(=O)Nc1cc(Nc2nccc(-c3c[nH]c4ccccc34)n2)c(OC)cc1N(C)CCN(C)C
cell viability / %: 0.41

molecule: CCOc1ccc(Cc2cc([C@]34OC[C@](CO)(O3)[C@@H](O)[C@H](O)[C@H]4O)ccc2Cl)cc1
cell viability / %: 102

molecule: CC(C)=CCCC(C)=CCCC(C)=CCCC(C)=CCC1=C(C)C(=O)c2ccccc2C1=O
cell viability / %: 101

molecule: C[C@@H](c1ncncc1F)[C@](O)(Cn1cncn1)c1ccc(F)cc1F
cell viability / %: 101

molecule: CC(=O)OC1CCC2C3CCc4cc(O)ccc4C3CCC12C (stereo not given)
cell viability / %: 96.2

molecule: CC(=O)O[C@]1(C(C)=O)CC[C@H]2[C@@H]3C=C(Cl)C4=CC(=O)[C@@H]5C[C@@H]5[C@]4(C)[C@H]3CC[C@@]21C [Cyproterone acetate]
cell viability / %: 93.3

molecule: N[C@@H](Cc1cc(I)c(O)c(I)c1)C(=O)O [3,5-Diiodotyrosine Dihydrate]
cell viability / %: 99.9

molecule: Nc1cc(C(Cl)=C(Cl)Cl)c(S(N)(=O)=O)cc1S(N)(=O)=O
cell viability / %: 99.8

molecule: CN(C)CCC(c1ccc(Cl)cc1)c1ccccn1 (stereo not given) [Chlorpheniramine Maleate]
cell viability / %: 101

molecule: O=C(CCCN1CCC(O)(c2ccc(Cl)cc2)CC1)c1ccc(F)cc1
cell viability / %: 91

molecule: NC(=O)N1c2ccccc2C=Cc2ccccc21 [Carbamazepine (Carbatrol)]
cell viability / %: 87.9

molecule: O=C(NCC1(c2nc(-c3ccccc3)cs2)CCOCC1)c1cccc(-c2noc(C(F)(F)F)n2)c1
cell viability / %: 97.8

molecule: Cc1ccc(C(=O)Nc2ccc(Oc3cc4cnn(C)c4cc3-c3cn[nH]c3)c(F)c2)c(=O)n1-c1ccc(F)cc1
cell viability / %: 12.4

molecule: C[C@H](NC(=O)CCc1nc2ccccc2c(=O)[nH]1)c1ccccc1
cell viability / %: 100

molecule: Oc1cc(O)c2c(c1)OC(c1ccc(O)c(O)c1)C(OC1(c3ccc(O)c(O)c3)Oc3cc(O)cc(O)c3C(O)C1O)C2 (stereo not given)
cell viability / %: 102

molecule: C=C1CCC2C(C)(COC(=O)CCC(=O)O)C(OC(=O)CCC(=O)O)CCC2(C)C1C=CC1=CCOC1=O (stereo not given) [Dehydroandrographolide Succinate]
cell viability / %: 107

molecule: CC(C)(O)CNc1nc(Nc2ccnc(C(F)(F)F)c2)nc(-c2cccc(C(F)(F)F)n2)n1 [AG-221 (Enasidenib)]
cell viability / %: 110

molecule: Cc1cc(C)c(CNC(=O)c2cc(-c3ccc(CN4CCOCC4)cc3)cc3c2cnn3C2CCCC2)c(=O)[nH]1
cell viability / %: 107

molecule: CC(CCC(=O)NCCS(=O)(=O)O)C1CCC2C3C(O)CC4CC(O)CCC4(C)C3CCC12C (stereo not given) [Sodium Tauroursodeoxycholate (TUDC)]
cell viability / %: 91.2

molecule: C=CC(=O)Nc1cc(N2CCN(CC)CC2)ccc1Nc1cc(N(C)C(=O)Nc2c(Cl)c(OC)cc(OC)c2Cl)ncn1
cell viability / %: 0.44

molecule: O=C1C[C@@H](c2ccc(O[C@@H]3O[C@H](CO)[C@@H](O)[C@H](O)[C@H]3O)cc2)Oc2cc(O)ccc21
cell viability / %: 89
